Target: TtMgtE (full-length MgtE) (Thermus thermophilus)
Construct: full-length, expressed in E. coli C41 (DE3), Ni-NTA and gel filtration in detergent; homodimer; tag not described
Sequence (Q5SMG8 whole entry): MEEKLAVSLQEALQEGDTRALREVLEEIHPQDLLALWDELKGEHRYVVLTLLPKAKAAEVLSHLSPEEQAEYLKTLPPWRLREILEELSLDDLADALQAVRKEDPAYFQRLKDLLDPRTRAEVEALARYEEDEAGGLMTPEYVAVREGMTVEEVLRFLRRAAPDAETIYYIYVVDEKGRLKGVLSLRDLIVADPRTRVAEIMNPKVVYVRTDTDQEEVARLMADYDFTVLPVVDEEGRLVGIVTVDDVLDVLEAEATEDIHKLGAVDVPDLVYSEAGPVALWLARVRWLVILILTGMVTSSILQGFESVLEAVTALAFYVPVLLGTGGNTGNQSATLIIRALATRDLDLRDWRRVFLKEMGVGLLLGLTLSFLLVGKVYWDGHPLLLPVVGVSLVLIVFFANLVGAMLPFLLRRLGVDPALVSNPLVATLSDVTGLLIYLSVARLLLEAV
Test: isothermal titration calorimetry
pKd: −log10 of the molar value.
reported.metric: pKd

P: Nc1ncnc2c1ncn2[C@@H]1O[C@H](COP(=O)(O)OP(=O)(O)OP(=O)(O)O)[C@@H](O)[C@H]1O
Q: Nc1ncnc2c1ncn2[C@@H]1O[C@H](COP(=O)(O)OP(=O)(O)O)[C@@H](O)[C@H]1O
Asked: Name the one with the greater pKd value, either P or Q as given. Give the chosen item's label as your response.
Given back: P
